biological target: UniProt:P35346; experiment: cAMP assay for SST5R (inhibition of cAMP via human SST5 receptor); details: SST5 over SST2, class symbols
endpoint label: Fold selectivity for SST5 vs SST2

Cc1cccc2nc(-c3cncc(-c4ccnc(C#N)c4)c3N3CC[C@](C)(N)C3)[nH]c12
+++ (+++=≥500)
N#Cc1cc(-c2cncc(-c3nc4cccc(F)c4[nH]3)c2N2CC[C@H](N)C2)ccc1Cl
++ (++=100 to 499)
N#Cc1cc(F)cc(-c2cncc(-c3nc4ccccc4[nH]3)c2N2CC[C@H](N)C2)c1
++ (++=100 to 499)
C[C@]1(N)CCN(c2c(-c3ccnc(C#N)c3)cncc2-c2nc3c(F)cccc3[nH]2)C1
+++ (+++=≥500)
Cc1cccc2nc(-c3cncc(-c4ccc(F)c(C#N)c4)c3N3CC[C@H](N)C3)[nH]c12
+++ (+++=≥500)

Prompt line: Item Cc1ccnc2nc(-c3cncc(-c4ccc(F)c(C(F)(F)F)c4)c3N3CC[C@](C)(N)C3)[nH]c12 has what recorded Fold selectivity for SST5 vs SST2?
Response line: +++ (+++=≥500)

---

Task for the reader: assign each of the following compounds its reported pEC50.
target: UniProt P35346; assay: cAMP assay for SST5R (inhibition of cAMP via human SST5 receptor)
pEC50: −log10 of the molar value.

Prompt line: # input compound: Cc1ccnc2nc(-c3cncc(-c4cc(F)cc(C#N)c4)c3N3CC[C@](C)(N)C3)[nH]c12 ; wanted: its pEC50
Response line: > 8.00

Prompt line: State the recorded pEC50 for this entry: Cc1cc(C)c2[nH]c(-c3cncc(-c4ccc(F)c(C#N)c4)c3N3CC[C@](C)(N)C3)nc2n1
Response line: > 8.00

Prompt line: Which pEC50 is listed for CS(=O)(=O)c1cccc(-c2cncc(-c3nc4cc(F)cc(F)c4[nH]3)c2N2CC[C@H](N)C2)c1 ?
Response line: 6.00 to 7.00

Prompt line: Can you look up the measured pEC50 of CC1(N)CCN(c2c(-c3ccc4[nH]ccc4c3)cncc2-c2nc3cccc(F)c3[nH]2)C1 (stereo not drawn) for me?
Response line: 6.00 to 7.00

Prompt line: Fill in: pEC50 of Cc1cccc2[nH]c(-c3cncc(-c4cc(F)cc(C#N)c4)c3N3CC[C@H](N)C3)cc12 is ___
Response line: 7.00 to 8.00

Prompt line: Look up pEC50: Cc1cccc2nc(-c3cncc(-c4cc(F)c(F)c(C(=O)O)c4)c3N3CCC(C)(N)C3)[nH]c12 (stereo not drawn)
Response line: < 6.00

Prompt line: Recorded pEC50 for Cc1cccc2nc(-c3cncc(-c4cccc(C(N)=O)c4)c3N3CC[C@H](N)C3)[nH]c12 , please?
Response line: > 8.00

Prompt line: Given the compound Cc1cccc(-c2cncc(-c3nc4cc(F)cc(F)c4[nH]3)c2N2CC(C(C)N)C2)c1F (stereo not drawn) , what is its reported pEC50?
Response line: > 8.00

Prompt line: For Cc1cc(F)cc(-c2cncc(-c3nc4cccnc4[nH]3)c2N2CC(CN)C2)c1 , what is its reported pEC50?
Response line: 6.00 to 7.00

Prompt line: Look up pEC50 for this compound: N#Cc1cc(-c2cncc(-c3nc4c(F)ccc(F)c4[nH]3)c2N2CC[C@H](N)C2)ccc1F
Response line: > 8.00

Prompt line: Query (compound): N#Cc1ccc(-c2cncc(-c3nc4cccc(F)c4[nH]3)c2N2CC[C@H](N)C2)cc1 ; field requested: pEC50
Response line: 6.00 to 7.00

Prompt line: Look up pEC50 for this compound: Cc1ccnc2nc(-c3cncc(-c4cccc(C#N)c4)c3N3CCC(C)(N)C3)[nH]c12 (stereo not drawn)
Response line: > 8.00

Prompt line: State the recorded pEC50 for this entry: Cc1cccc2nc(-c3cncc(-c4cc(F)cc(C#N)c4)c3N3CC[C@@](N)(CO)C3)[nH]c12
Response line: > 8.00

Prompt line: Request the reported pEC50 associated with Cc1ccnc2nc(-c3cncc(-c4ccc(F)c(C#N)c4)c3N3CC[C@H](N)C3)[nH]c12
Response line: 7.00 to 8.00

Prompt line: Return reported pEC50; argument: Cc1cc(F)cc(-c2cncc(-c3nc4cccc(C)c4[nH]3)c2N2CC(CN)C2)c1
Response line: > 8.00

Prompt line: Which measured pEC50 value corresponds to Cc1ccnc2nc(-c3cncc(-c4ccc(F)c(F)c4)c3N3CC[C@](C)(N)C3)[nH]c12 ?
Response line: > 8.00

Prompt line: Need pEC50, item CCn1c(-c2cncc(-c3ccc(F)c(C#N)c3)c2N2CC[C@H](N)C2)nc2c(F)cccc21
Response line: > 8.00

Prompt line: Item under review: C[C@]1(N)CCN(c2c(-c3ccnc(C(F)(F)F)c3)cncc2-c2nc3c(F)cccc3[nH]2)C1 . Reported pEC50?
Response line: > 8.00

Prompt line: Data request, read-out pEC50, for Cc1cccc2nc(-c3cncc(-c4ccc(F)c(OC(F)(F)F)c4)c3N3CC[C@H](N)C3)[nH]c12
Response line: > 8.00

Prompt line: Which pEC50 value belongs to Cc1ccc(F)c2nc(-c3cncc(-c4ccc(F)c(C(N)=O)c4)c3N3CCC(C)(N)C3)[nH]c12 (stereo not drawn) ?
Response line: > 8.00

Prompt line: Would you mind telling me what pEC50 value was observed for Cc1cccc(-c2cncc(-c3nc4cccc(C)c4[nH]3)c2N2CC[C@@H](N)C2)c1 ?
Response line: 6.00 to 7.00

Prompt line: Any idea what its pEC50 is? The compound is N[C@H]1CCN(c2c(-c3ccc4c(c3)OCC4)cncc2-c2nc3cccc(F)c3[nH]2)C1
Response line: 7.00 to 8.00

Prompt line: Find the recorded pEC50 belonging to N#Cc1cc(Cl)cc(-c2cncc(-c3nc4cccc(F)c4[nH]3)c2N2CC[C@H](N)C2)c1 and report it.
Response line: 7.00 to 8.00

Prompt line: Any idea what its pEC50 is? The compound is N#Cc1cccc(-c2cncc(-c3nc4cccc(Br)c4[nH]3)c2N2CC[C@H](N)C2)c1
Response line: > 8.00

Prompt line: What value of measured pEC50 is listed for Cc1cccc2[nH]c(-c3cncc(-c4cc(F)c(F)c(C(N)=O)c4)c3N3CCC(C)(N)C3)nc12 (stereo not drawn) ?
Response line: > 8.00

Prompt line: Consider the compound NCC1CN(c2c(-c3nc4cc(F)cc(F)c4[nH]3)cncc2-c2cccc(Cl)c2F)C1 and give its measured pEC50.
Response line: 7.00 to 8.00

Prompt line: May I ask what pEC50 has been recorded for N#Cc1cc(F)cc(-c2cncc(-c3nc4cc(F)cc(F)c4[nH]3)c2N2CC[C@H](N)C2)c1 ?
Response line: > 8.00

Prompt line: Sample N#Cc1cccc(-c2cncc(-c3nc4c(C(=O)O)cccc4[nH]3)c2N2CC[C@H](N)C2)c1 — what was its pEC50?
Response line: < 6.00

Prompt line: Data request, read-out pEC50, for Cc1cc(F)cc(-c2cncc(-c3nc4c(F)ccc(F)c4[nH]3)c2N2CC(CN)C2)c1
Response line: > 8.00

Prompt line: Consider the compound Cn1c(-c2cncc(-c3ccnc(C#N)c3)c2N2CC[C@](C)(N)C2)nc2c(F)cccc21 and give its measured pEC50.
Response line: > 8.00

---

target: human somatostatin receptor subtype 5 (Homo sapiens, UniProt P35346); assay: cAMP assay for SST5R (inhibition of cAMP via human SST5 receptor); settings: SST5 over SST2, class symbols
Sequence (P35346 whole entry): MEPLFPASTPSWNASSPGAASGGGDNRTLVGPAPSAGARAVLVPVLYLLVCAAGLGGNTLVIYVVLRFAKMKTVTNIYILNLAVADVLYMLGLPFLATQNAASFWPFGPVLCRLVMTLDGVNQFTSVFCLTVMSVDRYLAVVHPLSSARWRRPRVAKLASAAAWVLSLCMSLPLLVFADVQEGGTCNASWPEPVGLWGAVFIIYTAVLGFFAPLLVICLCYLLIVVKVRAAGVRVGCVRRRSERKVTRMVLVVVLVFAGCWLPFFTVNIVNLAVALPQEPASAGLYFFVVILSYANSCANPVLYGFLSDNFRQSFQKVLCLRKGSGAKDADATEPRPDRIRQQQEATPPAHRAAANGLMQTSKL
endpoint label: Fold selectivity for SST5 vs SST2

A selection of reference data follows.
Cc1ccc(F)c2nc(-c3cncc(-c4ccc(F)c(C(N)=O)c4)c3N3CCC(C)(N)C3)[nH]c12 (stereo not shown)
+++ (+++=≥500)
C[C@]1(N)CCN(c2c(-c3cccc(C#N)c3)cncc2-c2nc3cccc(C#N)c3[nH]2)C1
+++ (+++=≥500)
CC1(N)CCN(c2c(-c3cc(F)cc(C#N)c3)cncc2-c2nc3cccc(F)c3[nH]2)C1 (stereo not shown)
+++ (+++=≥500)
C[C@]1(N)CCN(c2c(-c3ccc(F)c(C#N)c3)cncc2-c2nc3ncccc3[nH]2)C1
+++ (+++=≥500)
Cc1cccc2nc(-c3cncc(-c4cc(F)cc(C(F)(F)F)c4)c3N3CC[C@H](N)C3)[nH]c12
++ (++=100 to 499)

Prompt line: Need Fold selectivity for SST5 vs SST2, item Cc1cccc2nc(-c3cncc(-c4cccc(C#N)c4)c3N3CC[C@H](N)C3)[nH]c12
Response line: +++ (+++=≥500)

Prompt line: If you can, please state the reported Fold selectivity for SST5 vs SST2 value of Cc1cccc2[nH]c(-c3cncc(-c4cc(F)c(F)c(C(N)=O)c4)c3N3CCC(C)(N)C3)nc12 (stereo not shown) .
Response line: ++ (++=100 to 499)

---

Biological target: human somatostatin receptor subtype 3 (Homo sapiens)
Construct: expressed in transfected cells
Sequence (P32745 whole entry): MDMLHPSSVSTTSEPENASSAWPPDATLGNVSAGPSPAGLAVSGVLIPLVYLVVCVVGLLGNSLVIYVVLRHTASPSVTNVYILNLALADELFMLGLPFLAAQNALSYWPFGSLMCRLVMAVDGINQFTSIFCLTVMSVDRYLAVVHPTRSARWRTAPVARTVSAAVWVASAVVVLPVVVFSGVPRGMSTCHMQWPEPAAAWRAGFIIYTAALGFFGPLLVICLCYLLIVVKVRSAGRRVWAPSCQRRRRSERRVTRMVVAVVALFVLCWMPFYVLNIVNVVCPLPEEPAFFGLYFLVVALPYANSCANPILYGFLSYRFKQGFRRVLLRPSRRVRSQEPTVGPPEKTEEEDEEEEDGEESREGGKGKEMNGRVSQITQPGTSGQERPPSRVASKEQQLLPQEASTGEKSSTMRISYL
Assay: cAMP assay for SST3R (inhibition of cAMP via human SST3 receptor)
Assay type: cell-based
Details: from inhibition of cAMP via human SST5 receptor and human SST3 receptor
Source text: cAMP Assay Protocol for SST3R:
Classification field: YES = Fold selectivity for SST5 vs SST3 at or over 40 fold; NO = Fold selectivity for SST5 vs SST3 under 40 fold.

Prompt line: API: above_or_equal(metric=Fold selectivity for SST5 vs SST3, cutoff=40 fold) for item Cc1cc(F)cc(-c2cncc(-c3nc4cccc(C)c4[nH]3)c2N2CC[C@H](N)C2)c1
Response line: NO

Prompt line: Exam item: decide whether the reported Fold selectivity for SST5 vs SST3 for Cc1ccnc2[nH]c(-c3cncc(-c4ccc(F)c(C#N)c4)c3N3CC[C@](C)(N)C3)nc12 is at least 40 fold.
Response line: YES

Prompt line: Evaluate CCC(N)C1CN(c2c(-c3cc(C)cc(F)c3)cncc2-c2nc3cc(F)cc(F)c3[nH]2)C1 (stereo not drawn) : Fold selectivity for SST5 vs SST3 at minimum 40 fold?
Response line: YES

Prompt line: Exam item: decide whether the reported Fold selectivity for SST5 vs SST3 for Cc1cccc2nc(-c3cncc(-c4cc(F)cc(C(F)(F)F)c4)c3N3CC[C@H](N)C3)[nH]c12 is at least 40 fold.
Response line: NO

Prompt line: Is it the case that COc1cc(-c2cncc(-c3nc4nccc(C)c4[nH]3)c2N2CC[C@](C)(N)C2)ccc1F has Fold selectivity for SST5 vs SST3 reaching or exceeding 40 fold?
Response line: NO

Prompt line: Assess whether reported Fold selectivity for SST5 vs SST3 for Cc1cc(-c2cncc(-c3nc4nccc(C)c4[nH]3)c2N2CC[C@](C)(N)C2)ccc1F sits at 40 fold or higher.
Response line: NO

Prompt line: Test whether the compound COc1cc(F)cc(-c2cncc(-c3nc4c(C)cccc4[nH]3)c2N2CC[C@H](N)C2)c1 records Fold selectivity for SST5 vs SST3 of 40 fold or higher.
Response line: NO

Prompt line: Form field: Fold selectivity for SST5 vs SST3 at least 40 fold? Entry: C[C@]1(N)CCN(c2c(-c3ccnc(C#N)c3)cncc2-c2nc3c(F)cccc3[nH]2)C1
Response line: YES

Prompt line: Evaluate CC(N)C1CN(c2c(-c3ccc(F)c(C#N)c3)cncc2-c2nc3cc(F)cc(F)c3[nH]2)C1 (stereo not drawn) : Fold selectivity for SST5 vs SST3 at minimum 40 fold?
Response line: YES

Prompt line: State whether the measured Fold selectivity for SST5 vs SST3 reaches 40 fold, counting equality as reaching it, for Cc1cccc2nc(-c3cncc(-c4cc(F)cc(F)c4)c3N3CC[C@H](N)C3)[nH]c12
Response line: NO

Prompt line: Decide: Fold selectivity for SST5 vs SST3 of Cc1ccnc2nc(-c3cncc(-c4ccc(F)c(Cl)c4)c3N3CC[C@](C)(N)C3)[nH]c12 >= 40 fold?
Response line: NO

Prompt line: Given the entry Cc1cccc2nc(-c3cncc(-c4cc(F)cc(Cl)c4)c3N3CC[C@H](N)C3)[nH]c12 , answer whether its Fold selectivity for SST5 vs SST3 meets or surpasses 40 fold.
Response line: NO

Prompt line: Item Cc1ccc(F)c2[nH]c(-c3cncc(-c4cc(F)cc(C#N)c4)c3N3CC[C@H](N)C3)nc12 with Fold selectivity for SST5 vs SST3 of 40 fold or above?
Response line: YES

Prompt line: Is it the case that C[C@]1(N)CCN(c2c(-c3ccnc(C(F)(F)F)c3)cncc2-c2nc3c(F)cccc3[nH]2)C1 has Fold selectivity for SST5 vs SST3 reaching or exceeding 40 fold?
Response line: YES

Prompt line: Answer whether Fold selectivity for SST5 vs SST3 of Cc1ccnc2nc(-c3cncc(-c4ccc(F)c(F)c4)c3N3CC[C@](C)(N)C3)[nH]c12 is greater than or equal to 40 fold.
Response line: NO
